# Tested on: FLK-1 receptor
# test: FLK-1 Assay (cellular/catalytic ELISA, VEGF-stimulated phosphotyrosine)
# Format: cell-based
# Set-up: concentration or dose not given beside the values
quantity: Flk Kinase % Inhibition (P.110) (%)
Numbers only, in %.

Provide Flk Kinase % Inhibition (P.110) values for the following items, in order.
1. O=C1Nc2ccc(S(=O)(=O)N3CCOCC3)cc2C1=Cc1ccc(Br)s1 [10734/F11]
2. CNS(=O)(=O)c1ccc2c(c1)C(=Cc1cccc(C)c1)C(=O)N2 [10736/D04]
3. CCc1ccc(C=C2C(=O)Nc3c(Br)cc(Br)cc32)cc1 [10736/A09]

Response:
13.3
4.3
−8.7

====

# assay system: Met receptor (EGFR/Met chimeric cells, EMR) (Homo sapiens, UniProt P08581)
# Construct: expressed in transfected cells; the other entry of the earlier key: EGFR (P00533, Epidermal growth factor receptor)
# Sequence (P08581 with tags, fused parts or gaps): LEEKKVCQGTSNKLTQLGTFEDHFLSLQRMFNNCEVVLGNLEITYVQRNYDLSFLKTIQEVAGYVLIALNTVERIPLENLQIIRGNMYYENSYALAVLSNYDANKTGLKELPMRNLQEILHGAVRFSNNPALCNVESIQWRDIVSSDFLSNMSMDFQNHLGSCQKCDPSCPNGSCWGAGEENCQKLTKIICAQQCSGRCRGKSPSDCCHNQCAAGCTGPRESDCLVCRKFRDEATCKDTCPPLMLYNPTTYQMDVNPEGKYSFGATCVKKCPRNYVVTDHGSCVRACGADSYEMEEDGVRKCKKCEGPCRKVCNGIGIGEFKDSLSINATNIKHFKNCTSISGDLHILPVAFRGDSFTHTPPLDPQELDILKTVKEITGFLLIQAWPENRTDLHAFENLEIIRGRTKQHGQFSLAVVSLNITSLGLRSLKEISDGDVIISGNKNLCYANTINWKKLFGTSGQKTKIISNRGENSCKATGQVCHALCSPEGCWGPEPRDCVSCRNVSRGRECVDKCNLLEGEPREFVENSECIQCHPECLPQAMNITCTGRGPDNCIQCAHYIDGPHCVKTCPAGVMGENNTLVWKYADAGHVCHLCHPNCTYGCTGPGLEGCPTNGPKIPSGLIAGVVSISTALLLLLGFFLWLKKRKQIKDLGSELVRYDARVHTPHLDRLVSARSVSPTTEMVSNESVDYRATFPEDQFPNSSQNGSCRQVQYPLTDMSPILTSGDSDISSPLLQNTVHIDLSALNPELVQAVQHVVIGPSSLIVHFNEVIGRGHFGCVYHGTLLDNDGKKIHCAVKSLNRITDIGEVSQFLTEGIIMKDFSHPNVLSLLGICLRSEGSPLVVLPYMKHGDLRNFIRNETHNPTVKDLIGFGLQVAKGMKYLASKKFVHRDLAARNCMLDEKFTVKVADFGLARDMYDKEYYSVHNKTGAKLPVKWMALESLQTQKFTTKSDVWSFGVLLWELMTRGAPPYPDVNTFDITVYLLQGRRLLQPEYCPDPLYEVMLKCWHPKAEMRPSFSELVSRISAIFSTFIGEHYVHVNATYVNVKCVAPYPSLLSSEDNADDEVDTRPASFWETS
# test: Met Autophosphorylation Assay
# Type: biochemical
quantity: Met Kinase % Inhibition (P.130) (%)
Answers are plain numbers, in %.

Known results for compounds:
compound="O=C1Nc2c(Br)cc(Br)cc2C1=Cc1c(F)cccc1F [10735/A08]" units_label=% observed_result=50.8
compound="COc1c(C(C)(C)C)cc(C=C2C(=O)Nc3c(Br)cc(Br)c(C)c32)cc1C(C)(C)C [10733/H04]" units_label=% observed_result=11.9
compound="CCc1ccc(C=C2C(=O)Nc3c(Br)cc(Br)c(C)c32)s1 [10726/H10]" units_label=% observed_result=45.7

Please report Met Kinase % Inhibition (P.130) for every entry that follows.
1. O=C1Nc2c(Br)cc(Br)cc2C1=Cc1ccccc1Cl [10736/A11]
2. CCc1ccc(C=C2C(=O)Nc3c(Br)cc(Br)cc32)cc1 [10736/A09]
3. Cc1c(Br)ccc2c1C(=Cc1ccc(Cl)cc1Cl)C(=O)N2 [10735/C10]
4. Cc1c(Br)cc(Br)c2c1C(=Cc1sc3scc(C)c3c1C)C(=O)N2 [10724/H11]
5. O=C1Nc2ccc(S(=O)(=O)N3CCOCC3)cc2C1=Cc1ccc(Br)s1 [10734/F11]
6. Cc1c(Br)cc(Br)c2c1C(=Cc1c[nH]cn1)C(=O)N2 [10725/H11]
7. COc1cc(C=C2C(=O)Nc3c(Br)cc(Br)c(C)c32)cc2c1OCO2 [10728/H11]
8. O=C1Nc2c(Br)cc(Br)cc2C1=Cc1ccc(-c2ccccc2)cc1 [10735/A11]

Response:
1. 46.1
2. 69.7
3. 37.8
4. 9.8
5. 47.3
6. 17.8
7. 8.0
8. 24.5

====

# assay system: Met receptor (EGFR/Met chimeric cells, EMR) (Homo sapiens)
# Construct: expressed in transfected cells; the other entry of the earlier key: EGFR (P00533, Epidermal growth factor receptor)
# test: Met Autophosphorylation Assay
# Assay type: biochemical
# measurement context: protocol P.130
Consider the following compounds; for each one, report its Met Kinase % Inhibition (P.130).

Example entries and their recorded answers appear below.
compound="O=C1Nc2ccc(S(=O)(=O)Nc3ccc(C(F)(F)F)cc3)cc2C1=Cc1ccsc1 [10740/E05]" quantity="Met Kinase % Inhibition (P.130)" observed_result=75.6%
compound="O=C1Nc2ccc(S(=O)(=O)N3CCOCC3)cc2C1=Cc1ccnc2ccccc12 [10740/F03]" quantity="Met Kinase % Inhibition (P.130)" observed_result=32.8%
compound="Cc1ccc(C=C2C(=O)Nc3ccc(I)cc32)c(C)c1 [10737/B03]" quantity="Met Kinase % Inhibition (P.130)" observed_result=86.3%
compound="Cc1c(Br)ccc2c1C(=Cc1cccc(O)c1O)C(=O)N2 [10738/C06]" quantity="Met Kinase % Inhibition (P.130)" observed_result=92.2%
compound="COc1ccc(C=C2C(=O)Nc3c(Br)cc(Br)c(C)c32)cc1O [10738/H04]" quantity="Met Kinase % Inhibition (P.130)" observed_result=72.9%
compound="COc1ccc(C=C2C(=O)Nc3ccc(I)cc32)cc1O [10738/B04]" quantity="Met Kinase % Inhibition (P.130)" observed_result=70.7%
compound="CNS(=O)(=O)c1ccc2c(c1)C(=Cc1ccc(OC)c(F)c1)C(=O)N2 [10737/D06]" quantity="Met Kinase % Inhibition (P.130)" observed_result=37.4%
compound="O=C1Nc2ccc(S(=O)(=O)Nc3ccc(C(F)(F)F)cc3)cc2C1=Cc1cc(F)ccc1F [10737/E04]" quantity="Met Kinase % Inhibition (P.130)" observed_result=79.3%

Attention now shifts to the item below.
Query: I'm curious: which Met Kinase % Inhibition (P.130) was measured for CCCOc1ccc(C=C2C(=O)Nc3ccc(CCCl)cc32)cc1 [10738/G11] tested on Met receptor (EGFR/Met chimeric cells, EMR) (Homo sapiens)?
Response: 22.2%

====

Provide the recorded Biochem EGFR % Inhibition (P.167) for the entries that follow.
# assay system: EGFR (Homo sapiens, UniProt P00533)
# Construct: endogenous in cells; host or cells: A431 cells (lysate, captured with SUMO1 anti-EGFR antibody)
# Sequence (P00533 25-1210): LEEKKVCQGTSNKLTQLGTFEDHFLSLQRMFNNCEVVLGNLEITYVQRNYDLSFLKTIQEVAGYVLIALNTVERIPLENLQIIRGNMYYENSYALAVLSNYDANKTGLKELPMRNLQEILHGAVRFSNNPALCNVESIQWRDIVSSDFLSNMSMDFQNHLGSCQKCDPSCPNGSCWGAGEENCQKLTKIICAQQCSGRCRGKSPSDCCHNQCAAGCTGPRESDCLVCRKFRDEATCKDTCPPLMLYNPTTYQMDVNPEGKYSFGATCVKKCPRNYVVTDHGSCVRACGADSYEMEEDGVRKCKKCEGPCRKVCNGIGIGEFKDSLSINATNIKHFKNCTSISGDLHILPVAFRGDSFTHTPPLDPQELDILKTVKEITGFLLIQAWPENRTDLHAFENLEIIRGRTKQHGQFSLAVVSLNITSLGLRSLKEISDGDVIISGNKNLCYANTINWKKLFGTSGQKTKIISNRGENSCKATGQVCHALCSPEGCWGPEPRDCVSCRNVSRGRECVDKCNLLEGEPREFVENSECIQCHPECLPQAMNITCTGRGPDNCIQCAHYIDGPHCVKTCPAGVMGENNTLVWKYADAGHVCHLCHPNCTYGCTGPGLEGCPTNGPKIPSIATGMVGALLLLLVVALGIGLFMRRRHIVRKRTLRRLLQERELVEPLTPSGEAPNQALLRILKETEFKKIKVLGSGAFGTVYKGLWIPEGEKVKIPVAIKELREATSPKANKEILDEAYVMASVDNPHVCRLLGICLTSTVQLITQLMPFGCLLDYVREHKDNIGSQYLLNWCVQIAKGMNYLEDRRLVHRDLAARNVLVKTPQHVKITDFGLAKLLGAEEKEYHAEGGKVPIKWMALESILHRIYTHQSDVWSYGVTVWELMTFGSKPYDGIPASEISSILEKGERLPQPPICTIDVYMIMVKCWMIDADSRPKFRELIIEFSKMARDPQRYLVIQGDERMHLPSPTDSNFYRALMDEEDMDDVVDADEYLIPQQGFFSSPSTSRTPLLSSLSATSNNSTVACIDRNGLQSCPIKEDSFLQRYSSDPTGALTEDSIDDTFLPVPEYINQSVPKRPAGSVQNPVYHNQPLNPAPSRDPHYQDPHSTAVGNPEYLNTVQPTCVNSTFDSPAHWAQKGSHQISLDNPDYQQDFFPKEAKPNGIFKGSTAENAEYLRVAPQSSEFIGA
# test: Biochemical EGFR Assay
# Parameters: concentration or dose not given beside the values
Numbers only, in %.

Reference set (3 entries):
molecule=Cc1c(Br)cc(Br)c2c1C(=Cc1ccc(Br)s1)C(=O)N2 quantity="Biochem EGFR % Inhibition (P.167)" units_label=% observed_result=−8.5
molecule=COc1ccc(C=C2C(=O)Nc3c(Br)cc(Br)c(C)c32)c(OC)c1 quantity="Biochem EGFR % Inhibition (P.167)" units_label=% observed_result=−0.5
molecule=Cc1c(Br)ccc2c1C(=Cc1cc(Cl)cc(Cl)c1O)C(=O)N2 quantity="Biochem EGFR % Inhibition (P.167)" units_label=% observed_result=48.6

Quick batch: Biochem EGFR % Inhibition (P.167) for everything below.
1. Cc1ccc2occ(C=C3C(=O)Nc4c(Br)cc(Br)c(C)c43)c(=O)c2c1
2. Cc1c(Br)cc(Br)c2c1C(=Cc1ccc([N+](=O)[O-])cc1)C(=O)N2

Response:
["−7.8", "−32.2"]

====

# assay system: Met receptor (EGFR/Met chimeric cells, EMR) (Homo sapiens)
# Construct: expressed in transfected cells; the other entry of the earlier key: EGFR (P00533, Epidermal growth factor receptor)
# test: Met Autophosphorylation Assay
# Format: biochemical
# measurement context: protocol P.130
quantity: Met Kinase % Inhibition (P.130) (%)
One number for each entry, in %.

molecule=O=C1Nc2ccc(CCCl)cc2C1=Cc1cccc(OCc2ccccc2)c1 units_label=% observed_result=9.3
molecule=O=C1Nc2c(Br)cc(Br)cc2C1=Cc1ccoc1 units_label=% observed_result=81.2
molecule=Cc1c(Br)ccc2c1C(=Cc1cc(O)ccc1[N+](=O)[O-])C(=O)N2 units_label=% observed_result=34.2
molecule=CCCCOc1ccc(C=C2C(=O)Nc3ccc(S(=O)(=O)NC)cc32)cc1 units_label=% observed_result=−9.1
molecule=Cc1c(Br)ccc2c1C(=Cc1cnc3ccccc3c1)C(=O)N2 units_label=% observed_result=45.1
molecule=COc1ccc(C=C2C(=O)Nc3ccc(Br)c(C)c32)cc1F units_label=% observed_result=38.6
molecule=Cc1c(Br)ccc2c1C(=Cc1ccc(CO)o1)C(=O)N2 units_label=% observed_result=61.0
molecule=COc1ccc(Oc2cccc(C=C3C(=O)Nc4c(Br)cc(Br)cc43)c2)cc1 units_label=% observed_result=39.9

Below are some compounds; for each one, tell me its Met Kinase % Inhibition (P.130).
1. Cc1c(Br)ccc2c1C(=Cc1ccc(C(C)C)cc1)C(=O)N2
2. Cc1c(Br)ccc2c1C(=Cc1ccoc1)C(=O)N2
3. Cc1c(Br)cc(Br)c2c1C(=Cc1cccc(Cl)c1)C(=O)N2
4. Cc1ccc(Oc2cccc(C=C3C(=O)Nc4ccc(S(=O)(=O)N5CCOCC5)cc43)c2)cc1
5. Cc1c(Br)cc(Br)c2c1C(=Cc1ccc3ccccc3c1)C(=O)N2

Response:
[3.2, 66.3, 27.4, 66.1, 28.0]

====

# assay system: EGFR (Homo sapiens, UniProt P00533)
# Construct: endogenous in cells; host or cells: A431 cells (lysate, captured with SUMO1 anti-EGFR antibody)
# test: Biochemical EGFR Assay
# Set-up: concentration or dose not given beside the values
quantity: Biochem EGFR % Inhibition (P.167) (%)
One number for each entry, in %.

Observe how each entry below is paired with its result.
molecule=O=C1Nc2ccc(I)cc2C1=Cc1ccccc1Cl observed_result=−3.7
molecule=CCN(CC)c1ccc(C=C2C(=O)Nc3ccc(S(=O)(=O)Nc4ccc(C(F)(F)F)cc4)cc32)c(O)c1 observed_result=7.9
molecule=COc1cc(O)c(C=C2C(=O)Nc3c(Br)cc(Br)c(C)c32)c(OC)c1 observed_result=−19.7
molecule=Cc1c(Br)ccc2c1C(=Cc1cc(F)cc(F)c1)C(=O)N2 observed_result=5.8
molecule=Cc1c(Br)cc(Br)c2c1C(=Cc1cc3c4c(c1O)CCCN4CCC3)C(=O)N2 observed_result=−1.3

State recorded Biochem EGFR % Inhibition (P.167) for all listed molecules.
1. CCc1ccc(C=C2C(=O)Nc3c(Br)cc(Br)c(C)c32)s1
2. O=C1Nc2ccc(I)cc2C1=Cc1ccc([N+](=O)[O-])cc1
3. COc1c(C)cc(C=C2C(=O)Nc3c(Br)cc(Br)c(C)c32)cc1C
4. CCOC(=O)CCc1c(C(=O)OCC)[nH]c(C=C2C(=O)Nc3c(Br)cc(Br)c(C)c32)c1CC(=O)OCC

Response:
1. 12.0
2. 54.0
3. −10.5
4. 0.2

Where do the numbers come from? From patent US20020026053A1.
